# Test system: PC-3 prostate
# experimental-protocol: NCI-60 one-dose screen, 48 h
# setup-conditions: 10 µM unless noted
The panel holds about 83,000 compounds, 20% with a hit somewhere; the sample as a whole holds those more often. The source made the active and inactive calls. Rule for the calls: active = growth percent below 10; inactive = the rest.
Possible outcomes: active, inactive

>>> label_class("CC(C)CC1NC(=O)C(CC(C)C)N(CO)C1=O (stereo not given)")
"inactive"
>>> label_class("CCN1C(=O)N(CC)C2C1NN=c1s/c(=C\\c3ccc(Br)cc3)c(=O)n12 (stereo not given)")
"inactive"
>>> label_class("COc1cc(C2CC(c3ccccc3)=NN2C=O)ccc1Oc1nc2c(c(=O)n(C)c(=O)n2C)n1C (stereo not given)")
"inactive"
>>> label_class("COc1cnc2c(c1)C(=O)c1c-2n(CCCN2CCN(C)CC2)c(=O)c2cc(Cl)ccc12")
"inactive"
>>> label_class("COc1cc(/C=N/NC(=O)Cn2c(-c3ccc(C)o3)nc3ccccc32)ccc1OCc1ccccc1")
"inactive"
>>> label_class("COc1ccc(Oc2nc(Nc3ccc(N4CCOCC4)cc3)ncc2NC(=O)Nc2cccc(OC)c2)cc1")
"inactive"
>>> label_class("COC(=O)[C@@H](Cc1c[nH]c2ccccc12)NC(=O)/C=C/c1ccccc1")
"inactive"
>>> label_class("COc1ccc(-c2nn(C(=O)NCCN(C)C)cc2-c2ccncc2)cc1Cl")
"inactive"
>>> label_class("CC(C)CCC(=O)[C@@H](C)[C@H]1[C@@H](OC2OCC(O)C(O)C2NS(C)(=O)=O)C[C@H]2[C@@H]3CC=C4C[C@@H](O)CC[C@]4(C)[C@H]3CC[C@]12C (stereo not given in full)")
"active"
>>> label_class("CNC(=O)c1c(NC(=O)c2ccc(C(C)C)cc2)sc2c1CCC(=O)C2")
"active"
>>> label_class("CN1C(=O)C(C(=O)/C=C/c2ccccc2C(=O)O)C(=O)N(C)C1=O")
"inactive"
>>> label_class("COCc1nc(NS(=O)(=O)c2ccc(N)cc2)nc(C)c1Br")
"inactive"
>>> label_class("Cc1ccc(OC2=C(C#N)C(=N)N3C(=NN2)Sc2c(C)ccc(C)c23)cc1")
"inactive"
>>> label_class("COc1ccc(-c2cc(-c3cc4ccccc4oc3=O)n(-c3ccccc3)n2)cc1")
"inactive"
>>> label_class("CNCCCn1c2c(c3ccc(Cl)cc3c1=O)C(=O)c1cc(OC)cnc1-2")
"inactive"
>>> label_class("CCc1onc(-c2ccc(OC)cc2)c1-c1ccccc1OCCN(CC)CC")
"inactive"
>>> label_class("NC(N)=NC1CCCCC1")
"inactive"
>>> label_class("CCCCc1nc(Cl)c(C2CC(c3ccc(S(N)(=O)=O)cc3)=NN2c2cc(Cl)cc(Cl)c2)[nH]1 (stereo not given)")
"inactive"
>>> label_class("COc1cc(-c2nn(C(=O)NCCN3CCN(C)CC3)cc2-c2ccncc2)ccc1Cl")
"inactive"
>>> label_class("O=C(/C=C/c1ccccc1)c1c[nH]c2ccccc2c1=O")
"inactive"

====

# Test system: SN12C renal
# experimental-protocol: NCI-60 one-dose screen, 48 h (100 = growth as untreated, 0 = no growth, -100 = all killed)
# setup-conditions: 10 µM unless noted
# Method: Growth inhibition of the SN12C human tumor cell line is measured as a screen for anti-cancer activity. Cells are grown in 96 well plates and exposed to the test compound for 48 hours. Compounds are tested at a single concentration, which is 10^-5 M for most compounds. The reported endpoint is percent growth (GI% or GIPRCNT), where numbers from 0 - 100% represent growth inhibition, and numbers from -100% - 0 represent cell death. For example, a value of 40 represents 60% growth inhibition. […]
About 83,000 compounds went through this panel and 20% of them were active in at least one assay; those are over-represented in the sample as a whole.
property: growth (%)

>>> test_value("NC(=O)N/N=C\\c1ccc([N+](=O)[O-])o1")
104
>>> test_value("Nc1ccc(C2=NNC(=O)Cc3cc4c(cc32)OCCO4)cc1Cl")
61.1
>>> test_value("COc1ncnc2[nH]cc(CN3CCN(c4ccc(F)cc4)CC3)c12")
102
>>> test_value("COc1cccc(-c2nc3sccn3c2-c2ccnc(NCCN3CCCNS3(=O)=O)n2)c1")
60.8
>>> test_value("CC(C)(C)OC(=O)N1CCCN(CCNc2nccc(-c3c(-c4cccc(O)c4)nc4sccn34)n2)S1(=O)=O")
82.7
>>> test_value("Cc1cc2nc(CN)[nH]c2cc1C")
111
>>> test_value("O=C1/C(=C/c2cc(F)cc(F)c2)Cc2cc(F)cc(F)c21")
106
>>> test_value("CCCCOc1nc2ccc(C)cc2cc1/C=C/C(=O)/C=C(O)/C=C/c1cc2cc(C)ccc2nc1OCCCC")
111
>>> test_value("CCCC(CCC)(C(N)=O)C(=O)O")
102
>>> test_value("S=C(S)Oc1cccc2cccnc12")
89.8
>>> test_value("O=[N+]([O-])c1ccc(N=Nc2c(NNc3ccc([N+](=O)[O-])cn3)cc(S(=O)(=O)O)c3ccccc23)nc1")
81.5
>>> test_value("c1ccc2oc(-c3cnc4nonc4n3)cc2c1")
93
>>> test_value("COc1ccc2c(c1)C1=NN(C(=O)CO)[C@H](c3ccc(OC(F)(F)F)cc3)[C@@H]1CC2")
99.6
>>> test_value("O=C(O)CSc1ccc(NCc2oc(CO)cc(=O)c2O)cc1")
98.2
>>> test_value("CCn1c(=O)c(C(=O)NCCCO)c(O)c2ccccc21")
104
>>> test_value("COc1cccc(/C(C)=N/NC(=O)CSc2nc3ccccc3c(=O)n2CCc2ccc(S(N)(=O)=O)cc2)c1")
39.6
>>> test_value("NS(=O)(=O)c1ccc(CCn2c(SCC(=O)N/N=C/c3ccccc3O)nc3ccccc3c2=O)cc1")
51.3
>>> test_value("Nc1c(C(=O)C[C@@H](N)CO)ccc2c1C(=O)CCO2")
32.7
>>> test_value("COc1cc2ccc(C(C)=O)cc2cc1OC")
95.1
>>> test_value("CCCCCCCCCCCCCCCC1=NC(C)(C)CN1C(C)C")
-36.3
>>> test_value("COc1ccc(/C=C(\\C#N)c2cc(OC)c(OC)c(OC)c2)cc1")
27.9
>>> test_value("CCN(CC)CCCC(C)Nc1ccnc2ccc(Oc3ccccc3)cc12 (stereo not drawn)")
79.1
>>> test_value("COc1ccc(N=C2CSc3nnc(-c4cc(F)c(Cl)cc4Cl)n3N2)cc1")
7.26

Ref: PubChem BioAssay (NCI)
